Below, each entry is listed alongside its reported YAP1 (% UTC).
# System: Yap1 mRNA
# measurement.description: Antisense inhibition of human Yap1 in A-431 cells by cEt gapmers, single dose (Example 2, RTS4814)
# Type: cell-based
# conditions: Table 32; Yap1 mRNA, percent of untreated control; 3-10-3 cEt gapmers targeting SEQ ID NO.: 1, and 2
Strand notation (5' to 3'): a small letter for the sugar, then the base; units joined by * are phosphorothioate-linked, units joined directly phosphodiester-linked; [ ] holds rarer units or linkages, { } end groups; capitals alone tell only the bases. k = constrained ethyl (cEt); [5mC] = 5-methylcytosine; d = 2'-deoxy (DNA)
Response body: numeric value in % UTC, unit text excluded.

Known results for substances:
In [3]: df
Out[3]:
                                  substance  numeric_value
0  1075026 (antisense k[5mC]*kT*kT*dA*dA*dA*dA*dG*d[5mC]*d[5mC]*dA*dT*d[5mC]*kT*kA*k[5mC]) [compound 1075026]             55
1  1075154 (k[5mC]*kA*kT*dT*dA*dT*dA*dA*dT*dG*dG*dG*dA*kG*kG*kA; antisense) [compound 1075154]             13
2  1074706 (antisense kT*kT*kA*dA*dT*dG*dG*d[5mC]*dA*dG*d[5mC]*dA*d[5mC]*kG*kG*kT) [compound 1074706]             48
3  1076242 (kA*kT*kG*d[5mC]*dA*dA*dT*dA*dA*dG*dG*dA*dA*k[5mC]*kA*kG; antisense) [compound 1076242]             33
4  1076082 (kT*k[5mC]*kT*d[5mC]*dA*dA*dT*dA*d[5mC]*dA*d[5mC]*dT*dA*kT*kA*kT; antisense) [compound 1076082]             38
5  958499 (ATTAGAGTATGTGGCA; 3-10-3 cEt gapmer, further chemistry not given here) [compound 958499]              2
6  1075186 (kA*kA*kA*dT*d[5mC]*dG*dA*dT*dT*dA*dT*dT*d[5mC]*kA*kG*kA; antisense) [compound 1075186]             73
7  1074354 (antisense kG*kG*kA*d[5mC]*dA*d[5mC]*dT*dG*dT*dA*dG*d[5mC]*dT*kG*k[5mC]*kT) [compound 1074354]             24

Query: Give YAP1 (% UTC) for 1074866 (kA*kA*k[5mC]*dA*dT*dA*dT*dG*dA*dG*d[5mC]*dA*dT*kG*k[5mC]*kT; antisense) [compound 1074866] tested on Yap1 mRNA.
Reply: 30

Query: Give YAP1 (% UTC) for 1076498 (kT*kT*kA*d[5mC]*dA*dA*dT*dA*d[5mC]*d[5mC]*dT*dT*dA*kT*kG*kA; antisense) [compound 1076498] tested on Yap1 mRNA.
Reply: 70

Query: Give YAP1 (% UTC) for 1076210 (kA*kT*kT*dT*dA*dT*dA*dT*dG*d[5mC]*dT*d[5mC]*d[5mC]*k[5mC]*kT*k[5mC]; antisense) [compound 1076210] tested on Yap1 mRNA.
Reply: 20

Query: Give YAP1 (% UTC) for 1075250 (kA*kA*kT*dT*dA*d[5mC]*dG*dA*dT*dT*dA*dG*dA*kT*k[5mC]*kA; antisense) [compound 1075250] tested on Yap1 mRNA.
Reply: 55
